target_of_assay: T1, soluble human insulin receptor-immunoglobulin heavy chain chimera (sIR-Fc; Bass et al., 1996) (human, UniProt P06213 28-956, limits assumed)
T1 construct: extracellular domain; also called soluble IR (Bass construct); not shown: immunoglobulin heavy chain constant domains
method_summary: phage ELISA
recorded_endpoint: Ratio over Background
Write the value as a bare number.

Query: Please look up its Ratio over Background: TLDGGSFEEQFYDWFVRQLSYRTNPD [H2CA-4-G11-IGFR]
Reply: 2.5

Query: Please look up its Ratio over Background: SGAKVIVVTGDSGDPFYHKLSELLQGS [B6Hα-2-C10-IR]
Reply: 1.1

Query: Please look up its Ratio over Background: VERSASSQDGNFYDWFVVQIR [A6S-2-D1-IR]
Reply: 12

Query: Please look up its Ratio over Background: RGQSDAFYSGLWALIGLSDG [R20β-4-A6-IR]
Reply: 1.5

Query: Please look up its Ratio over Background: YRGMLVLGRSSDGAGKVAFERPARIGQTVFAVNFYDWFV [A6L-0-E6-IR]
Reply: 1.8

Query: Please look up its Ratio over Background: ICTGQGFYQVLCGLLRGTSAR [20E2B-2-B3-IGFR]
Reply: 0.7

Query: Please look up its Ratio over Background: IQQELTFYDLLHRLVRSELGS [20E2B-3-D2-IGFR]
Reply: 1.1

Query: Please look up its Ratio over Background: DRAFYNGLRDLVGAVYGAWD [R20α-4-20C11-IR]
Reply: 3

Query: Please look up its Ratio over Background: LRIANLFYQRLWDLAFGGGG [20E2B-3-E8-IGFR]
Reply: 1.5

Query: Please look up its Ratio over Background: GGTKAVAKVGTRDDPFYHKLSELLQGS [B6Hα-4-G8-IR]
Reply: 1.7

Query: Please look up its Ratio over Background: RCEEKQAEVGPSSDPFYHKMSELLGCR [B6Hα-3-E9-IR]
Reply: 1.7

Query: Please look up its Ratio over Background: VEGRGLFYDLLRQLLARRQNG [20E2B-3-C6-IGFR]
Reply: 1.1

Query: Please look up its Ratio over Background: MMVVDGFYDALHQLVVAQSLG [20E2A-3-D10-IGFR]
Reply: 1.8

Query: Please look up its Ratio over Background: IIGGFYSYFNSVLRLGT [NNRPγ-4-A1-IR]
Reply: 1.8

Query: Please look up its Ratio over Background: LGYQEPFQQNFYDWFVRQVSGAENAG [H2CA-3-E8-IGFR]
Reply: 2.2

Query: Please look up its Ratio over Background: LQPCSGFYECIERLIGVKLSG [20E2Bβ-4-G7-IR]
Reply: 1.6

Query: Please look up its Ratio over Background: SSYGCDGFYLMLFSLGLVASQELEC [20C-3-A1-IGFR]
Reply: 1.5

Query: Please look up its Ratio over Background: VATSQGFYSGLSELLQGGGNV [20E2B-3-E12-IGFR]
Reply: 0.8

Query: Please look up its Ratio over Background: QGNVLDFYGWIGRLLAKQGSD [20E2B-3-D12-IGFR]
Reply: 0.9

Query: Please look up its Ratio over Background: GFREGSFYDWFQAQVT [E4Dα-2-D11-IR]
Reply: 3.3

Query: Please look up its Ratio over Background: FFYDCLAALLQGVARYHDLCAVEIT [20C-4-C7-IGFR]
Reply: 1.3

The measured values listed here are drawn from patent US20070265189A1.
